target: Histone deacetylase 5 (Homo sapiens); assay: Inhibition of human HDAC5 at 1 uM using Boc-Lys(trifluoroacetyl)-AMC substrate
inhibition reference

>  <COMPOUND>
Nc1ccccc1NC(=O)c1ccc(NC(=O)Cc2ccc(C(F)(F)F)cc2)cc1

>  <ASSAY_SYSTEM>
Histone deacetylase 5 (Homo sapiens)

>  <inhibition>
0%

$$$$
>  <COMPOUND>
CC(C)[C@@H](C(=O)Nc1ccc(C(=O)Nc2ccc(C(F)(F)F)cc2N)cc1)c1ccccc1

>  <ASSAY_SYSTEM>
Histone deacetylase 5 (Homo sapiens)

>  <inhibition>
0%

$$$$
>  <COMPOUND>
CC(C)(C(=O)Nc1ccc(C(=O)Nc2ccccc2N)cc1)c1ccccc1

>  <ASSAY_SYSTEM>
Histone deacetylase 5 (Homo sapiens)

>  <inhibition>
0%

$$$$
>  <COMPOUND>
Nc1cc(F)ccc1NC(=O)c1ccc(NC(=O)Cc2ccc(C(F)(F)F)cc2)cc1

>  <ASSAY_SYSTEM>
Histone deacetylase 5 (Homo sapiens)

>  <inhibition>
0%

$$$$
>  <COMPOUND>
CC(C)[C@H](C(=O)Nc1ccc(C(=O)NO)cc1)c1ccccc1

>  <ASSAY_SYSTEM>
Histone deacetylase 5 (Homo sapiens)

>  <inhibition>
0%

$$$$
>  <COMPOUND>
Nc1cc(F)ccc1NC(=O)c1ccc(NC(=O)C2CC2c2ccccc2)cc1 (stereo not given)

>  <ASSAY_SYSTEM>
Histone deacetylase 5 (Homo sapiens)

>  <inhibition>
3%

$$$$
>  <COMPOUND>
CC(C)[C@@H](C(=O)Nc1ccc(C(=O)Nc2ccc(F)cc2N)cc1)c1ccccc1

>  <ASSAY_SYSTEM>
Histone deacetylase 5 (Homo sapiens)

>  <inhibition>
0%

$$$$
>  <COMPOUND>
CC(C)[C@H](C(=O)Nc1ccc(C(=O)Nc2ccccc2N)cc1)c1ccccc1

>  <ASSAY_SYSTEM>
Histone deacetylase 5 (Homo sapiens)

>  <inhibition>
0%

$$$$
>  <COMPOUND>
CC(C)[C@@H](C(=O)Nc1ccc(C(=O)Nc2ccccc2N)cc1)c1ccccc1

>  <ASSAY_SYSTEM>
Histone deacetylase 5 (Homo sapiens)

>  <inhibition>
9%

$$$$
>  <COMPOUND>
CC(C)(C(=O)Nc1ccc(C(=O)Nc2ccc(F)cc2N)cc1)c1ccccc1

>  <ASSAY_SYSTEM>
Histone deacetylase 5 (Homo sapiens)

>  <inhibition>
0%

$$$$

----------
molecular target: Histone deacetylase 3/Nuclear receptor corepressor 2 (HDAC3/NCoR2) (Homo sapiens); experiment: Inhibition of human HDAC3/NCOR2 using p53 (379 to 382 residues) derived fluorogenic peptide RHKKAc; format: protein-complex assay
Sequence (O15379 whole entry, the tested form may be a part): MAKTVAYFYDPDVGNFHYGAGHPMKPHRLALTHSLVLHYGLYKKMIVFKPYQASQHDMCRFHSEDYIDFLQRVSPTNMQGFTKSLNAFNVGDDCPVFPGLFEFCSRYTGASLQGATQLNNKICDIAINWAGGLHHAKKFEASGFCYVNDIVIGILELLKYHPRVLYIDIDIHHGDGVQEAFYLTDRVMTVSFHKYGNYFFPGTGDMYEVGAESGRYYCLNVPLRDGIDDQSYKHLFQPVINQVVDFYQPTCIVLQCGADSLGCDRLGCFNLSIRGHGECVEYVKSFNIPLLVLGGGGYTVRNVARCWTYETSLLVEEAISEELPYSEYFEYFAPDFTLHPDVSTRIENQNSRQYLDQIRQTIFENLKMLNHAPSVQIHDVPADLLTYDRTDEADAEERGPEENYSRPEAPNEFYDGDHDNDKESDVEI
Sequence (Q9Y618 whole entry, further chain, the tested form may be a part): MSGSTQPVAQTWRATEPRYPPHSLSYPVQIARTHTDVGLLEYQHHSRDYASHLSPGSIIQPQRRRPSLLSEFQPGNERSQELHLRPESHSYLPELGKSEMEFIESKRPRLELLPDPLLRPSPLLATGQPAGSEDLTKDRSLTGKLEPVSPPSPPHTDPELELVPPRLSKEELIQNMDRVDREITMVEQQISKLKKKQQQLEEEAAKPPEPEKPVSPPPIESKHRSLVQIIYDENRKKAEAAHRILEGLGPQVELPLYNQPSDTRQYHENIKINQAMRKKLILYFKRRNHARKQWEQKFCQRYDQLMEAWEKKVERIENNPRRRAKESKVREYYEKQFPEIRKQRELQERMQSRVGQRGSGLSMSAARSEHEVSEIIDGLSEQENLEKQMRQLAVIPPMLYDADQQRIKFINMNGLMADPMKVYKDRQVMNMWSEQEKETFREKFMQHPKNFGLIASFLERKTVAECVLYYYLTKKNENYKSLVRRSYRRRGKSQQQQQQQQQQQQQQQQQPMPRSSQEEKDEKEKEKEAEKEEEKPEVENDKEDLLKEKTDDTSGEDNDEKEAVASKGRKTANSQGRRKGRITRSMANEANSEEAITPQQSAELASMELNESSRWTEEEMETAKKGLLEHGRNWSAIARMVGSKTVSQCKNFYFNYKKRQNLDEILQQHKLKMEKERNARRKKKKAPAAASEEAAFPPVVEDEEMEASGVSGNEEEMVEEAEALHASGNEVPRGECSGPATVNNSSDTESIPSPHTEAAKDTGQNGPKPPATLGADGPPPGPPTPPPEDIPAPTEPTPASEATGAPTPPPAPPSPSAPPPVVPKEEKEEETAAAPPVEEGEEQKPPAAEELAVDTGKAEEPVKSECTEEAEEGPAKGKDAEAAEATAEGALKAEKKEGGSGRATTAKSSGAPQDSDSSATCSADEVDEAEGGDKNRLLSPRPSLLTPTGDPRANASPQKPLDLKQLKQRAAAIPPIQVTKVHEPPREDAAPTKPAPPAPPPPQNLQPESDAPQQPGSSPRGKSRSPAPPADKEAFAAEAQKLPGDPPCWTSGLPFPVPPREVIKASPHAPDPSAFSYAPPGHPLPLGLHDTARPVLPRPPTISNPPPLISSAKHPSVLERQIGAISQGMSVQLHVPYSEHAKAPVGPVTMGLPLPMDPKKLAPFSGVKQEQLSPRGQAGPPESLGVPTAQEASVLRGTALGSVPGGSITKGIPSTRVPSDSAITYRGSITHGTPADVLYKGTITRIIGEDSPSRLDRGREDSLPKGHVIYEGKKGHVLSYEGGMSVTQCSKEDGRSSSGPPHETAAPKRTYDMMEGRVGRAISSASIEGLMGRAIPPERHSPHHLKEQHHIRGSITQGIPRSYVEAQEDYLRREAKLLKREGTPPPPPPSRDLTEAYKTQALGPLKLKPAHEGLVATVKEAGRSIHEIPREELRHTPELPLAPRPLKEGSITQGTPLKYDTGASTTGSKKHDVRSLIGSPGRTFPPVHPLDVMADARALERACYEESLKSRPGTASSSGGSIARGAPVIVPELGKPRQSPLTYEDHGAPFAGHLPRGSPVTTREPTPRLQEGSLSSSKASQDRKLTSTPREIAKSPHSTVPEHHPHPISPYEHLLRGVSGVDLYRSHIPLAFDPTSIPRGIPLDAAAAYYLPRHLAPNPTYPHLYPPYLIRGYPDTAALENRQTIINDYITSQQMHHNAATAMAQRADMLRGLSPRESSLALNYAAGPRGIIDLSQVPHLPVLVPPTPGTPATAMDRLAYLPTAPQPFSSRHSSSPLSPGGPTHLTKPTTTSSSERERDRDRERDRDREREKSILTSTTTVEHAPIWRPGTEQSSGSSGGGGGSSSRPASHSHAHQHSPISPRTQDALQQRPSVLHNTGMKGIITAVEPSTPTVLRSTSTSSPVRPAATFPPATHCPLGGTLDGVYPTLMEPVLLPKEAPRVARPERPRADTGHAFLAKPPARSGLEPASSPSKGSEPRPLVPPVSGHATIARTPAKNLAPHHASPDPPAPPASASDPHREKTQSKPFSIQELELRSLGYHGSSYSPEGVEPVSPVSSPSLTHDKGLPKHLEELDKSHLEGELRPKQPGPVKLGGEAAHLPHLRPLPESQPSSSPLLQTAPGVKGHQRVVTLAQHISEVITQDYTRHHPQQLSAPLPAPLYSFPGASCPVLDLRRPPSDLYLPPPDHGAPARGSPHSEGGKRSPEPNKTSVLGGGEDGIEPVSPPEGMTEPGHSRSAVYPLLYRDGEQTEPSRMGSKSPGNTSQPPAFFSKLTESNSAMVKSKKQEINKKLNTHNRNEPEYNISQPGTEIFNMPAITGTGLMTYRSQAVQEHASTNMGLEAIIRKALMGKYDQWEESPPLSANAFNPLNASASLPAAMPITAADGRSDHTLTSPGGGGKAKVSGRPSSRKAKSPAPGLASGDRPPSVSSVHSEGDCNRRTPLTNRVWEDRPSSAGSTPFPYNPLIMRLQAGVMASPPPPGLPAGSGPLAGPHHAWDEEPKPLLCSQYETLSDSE
Entries get a class label from measured IC50. See ranges: band 1 (below 200 nM), band 2 (200 nM to below 400 nM), band 3 (400 nM or more)

>  <COMPOUND>
Nc1cc(F)ccc1NC(=O)c1ccc(NC(=O)CCc2ccccc2)cc1

>  <CATEGORY_LABEL>
band 3

$$$$
>  <COMPOUND>
Nc1cc(F)ccc1NC(=O)c1ccc(NC(=O)Cc2ccccc2)cc1

>  <CATEGORY_LABEL>
band 1

$$$$
>  <COMPOUND>
C[C@@H](C(=O)Nc1ccc(C(=O)Nc2ccc(F)cc2N)cc1)c1ccccc1

>  <CATEGORY_LABEL>
band 2

$$$$
>  <COMPOUND>
C[C@@H](C(=O)Nc1ccc(C(=O)Nc2ccc(F)cc2N)nc1)c1ccccc1

>  <CATEGORY_LABEL>
band 3

$$$$
>  <COMPOUND>
Nc1cc(F)ccc1NC(=O)c1ccc(NC(=O)Cc2ccccc2)cn1

>  <CATEGORY_LABEL>
band 3

$$$$
>  <COMPOUND>
CC(C)[C@H](C(=O)Nc1ccc(C(=O)Nc2ccc(F)cc2N)nc1)c1ccccc1

>  <CATEGORY_LABEL>
band 2

$$$$
>  <COMPOUND>
Nc1cc(F)ccc1NC(=O)c1ccc(NC(=O)Cc2ccc(C(F)(F)F)cc2)cn1

>  <CATEGORY_LABEL>
band 3

$$$$
>  <COMPOUND>
CC(C)[C@@H](C(=O)Nc1ccc(C(=O)Nc2ccc(F)cc2N)cc1)c1ccccc1

>  <CATEGORY_LABEL>
band 3

$$$$
>  <COMPOUND>
Nc1cc(F)ccc1NC(=O)c1ccc(NC(=O)C2CC2c2ccccc2)cn1 (stereo not given)

>  <CATEGORY_LABEL>
band 3

$$$$
>  <COMPOUND>
C[C@H](C(=O)Nc1ccc(C(=O)Nc2ccc(F)cc2N)cc1)c1ccccc1

>  <CATEGORY_LABEL>
band 2

$$$$
>  <COMPOUND>
CC[C@@H](C(=O)Nc1ccc(C(=O)Nc2ccc(F)cc2N)cc1)c1ccccc1

>  <CATEGORY_LABEL>
band 1

$$$$
>  <COMPOUND>
CC[C@@H](C(=O)Nc1ccc(C(=O)Nc2ccc(F)cc2N)nc1)c1ccccc1

>  <CATEGORY_LABEL>
band 1

$$$$
>  <COMPOUND>
CC(C)[C@@H](C(=O)Nc1ccc(C(=O)Nc2ccc(F)cc2N)nc1)c1ccccc1

>  <CATEGORY_LABEL>
band 1

$$$$
>  <COMPOUND>
CC(C)(C(=O)Nc1ccc(C(=O)Nc2ccc(F)cc2N)cc1)c1ccccc1

>  <CATEGORY_LABEL>
band 2

$$$$
>  <COMPOUND>
CC[C@H](C(=O)Nc1ccc(C(=O)Nc2ccc(F)cc2N)cc1)c1ccccc1

>  <CATEGORY_LABEL>
band 1

$$$$

----------
biological target: Histone deacetylase 1 (Homo sapiens, UniProt Q13547)
Sequence (Q13547 whole entry): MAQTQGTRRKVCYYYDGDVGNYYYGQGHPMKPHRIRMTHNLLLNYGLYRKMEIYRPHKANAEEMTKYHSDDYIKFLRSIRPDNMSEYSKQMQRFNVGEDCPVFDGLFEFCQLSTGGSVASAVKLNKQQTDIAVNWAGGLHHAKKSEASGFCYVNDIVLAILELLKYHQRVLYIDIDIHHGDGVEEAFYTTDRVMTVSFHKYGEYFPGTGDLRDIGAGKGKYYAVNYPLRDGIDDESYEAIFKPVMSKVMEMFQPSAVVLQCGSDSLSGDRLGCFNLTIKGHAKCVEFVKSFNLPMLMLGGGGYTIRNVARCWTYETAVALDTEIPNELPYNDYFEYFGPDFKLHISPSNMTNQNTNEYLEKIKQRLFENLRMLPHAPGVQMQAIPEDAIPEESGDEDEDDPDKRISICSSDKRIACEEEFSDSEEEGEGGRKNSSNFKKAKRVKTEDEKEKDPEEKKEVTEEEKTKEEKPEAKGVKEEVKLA
pIC50: −log10 of the molar value.
Threshold check on pIC50: at or above 6 gives Condition met, strictly below gives Condition not met.

>  <SAMPLE_SMILES>
Nc1cc(F)ccc1NC(=O)c1ccc(NC(=O)Cc2ccc(F)cc2)cc1

>  <ASSAY_SYSTEM>
Histone deacetylase 1 (Homo sapiens, UniProt Q13547)

>  <CATEGORY_LABEL>
Condition not met

$$$$
>  <SAMPLE_SMILES>
Nc1cc(F)ccc1NC(=O)c1ccc(NC(=O)Cc2ccccc2)cc1

>  <ASSAY_SYSTEM>
Histone deacetylase 1 (Homo sapiens, UniProt Q13547)

>  <CATEGORY_LABEL>
Condition not met

$$$$
>  <SAMPLE_SMILES>
C[C@@H](C(=O)Nc1ccc(C(=O)Nc2ccc(F)cc2N)cc1)c1ccccc1

>  <ASSAY_SYSTEM>
Histone deacetylase 1 (Homo sapiens, UniProt Q13547)

>  <CATEGORY_LABEL>
Condition not met

$$$$
>  <SAMPLE_SMILES>
Nc1cc(F)ccc1NC(=O)c1ccc(NC(=O)Cc2ccc(F)cc2)cn1

>  <ASSAY_SYSTEM>
Histone deacetylase 1 (Homo sapiens, UniProt Q13547)

>  <CATEGORY_LABEL>
Condition met

$$$$
>  <SAMPLE_SMILES>
CC(C)[C@@H](C(=O)Nc1ccc(C(=O)Nc2ccc(F)cc2N)nc1)c1ccccc1

>  <ASSAY_SYSTEM>
Histone deacetylase 1 (Homo sapiens, UniProt Q13547)

>  <CATEGORY_LABEL>
Condition met

$$$$

----------
target: Protein deacetylase HDAC6 (Homo sapiens) (UniProt Q9UBN7); assay: Inhibition of HDAC6 in human MDA-MB-231 cells assessed as increase in histone H3K9 acetylation at 0.1 to 2.5uM incubated for 48 hrs by Western blot method; format: cell-based; settings: in the assay text read “tubulin acetylation” for “histone H3K9 acetylation”
Sequence (Q9UBN7 whole entry): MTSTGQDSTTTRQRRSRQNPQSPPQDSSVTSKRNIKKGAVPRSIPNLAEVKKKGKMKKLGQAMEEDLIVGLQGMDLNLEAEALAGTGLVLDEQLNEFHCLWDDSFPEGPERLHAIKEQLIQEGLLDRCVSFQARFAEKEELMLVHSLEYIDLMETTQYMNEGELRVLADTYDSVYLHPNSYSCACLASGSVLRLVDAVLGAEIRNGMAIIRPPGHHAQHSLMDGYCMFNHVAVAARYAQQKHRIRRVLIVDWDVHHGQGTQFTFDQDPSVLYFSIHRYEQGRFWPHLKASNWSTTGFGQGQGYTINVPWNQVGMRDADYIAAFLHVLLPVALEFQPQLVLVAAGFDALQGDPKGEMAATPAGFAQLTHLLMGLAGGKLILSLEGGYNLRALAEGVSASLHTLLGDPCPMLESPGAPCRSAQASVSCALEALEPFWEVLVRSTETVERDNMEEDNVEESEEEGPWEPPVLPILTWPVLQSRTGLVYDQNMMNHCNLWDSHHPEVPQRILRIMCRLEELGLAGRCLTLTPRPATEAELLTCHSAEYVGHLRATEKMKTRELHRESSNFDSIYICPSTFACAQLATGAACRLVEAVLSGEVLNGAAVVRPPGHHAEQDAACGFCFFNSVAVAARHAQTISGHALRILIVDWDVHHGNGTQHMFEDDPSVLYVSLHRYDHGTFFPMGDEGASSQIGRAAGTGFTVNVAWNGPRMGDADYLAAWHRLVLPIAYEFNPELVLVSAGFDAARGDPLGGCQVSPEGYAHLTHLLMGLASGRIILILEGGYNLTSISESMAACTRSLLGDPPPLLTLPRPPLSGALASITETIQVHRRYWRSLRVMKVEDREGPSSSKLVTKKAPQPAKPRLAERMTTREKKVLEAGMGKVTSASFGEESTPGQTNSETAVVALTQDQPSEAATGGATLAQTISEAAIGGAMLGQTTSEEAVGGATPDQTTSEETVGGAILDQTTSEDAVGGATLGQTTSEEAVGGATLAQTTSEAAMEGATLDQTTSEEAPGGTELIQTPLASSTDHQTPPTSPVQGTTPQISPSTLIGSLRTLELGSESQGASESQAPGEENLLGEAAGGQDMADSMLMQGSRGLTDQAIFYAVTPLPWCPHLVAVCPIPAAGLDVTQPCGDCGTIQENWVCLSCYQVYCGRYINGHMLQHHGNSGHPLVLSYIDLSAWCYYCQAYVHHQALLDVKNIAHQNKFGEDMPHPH
Calls of active or inactive are those of the source. No cut-off for these calls is given here.
REPORTED_ENDPOINT: inhibition

>  <SAMPLE_SMILES>
CC(C)[C@@H](C(=O)Nc1ccc(C(=O)Nc2ccccc2N)cc1)c1ccccc1

>  <ASSAY_SYSTEM>
Protein deacetylase HDAC6 (Homo sapiens) (UniProt Q9UBN7)

>  <REPORTED_ENDPOINT>
inhibition

>  <RESULT>
inactive

$$$$
>  <SAMPLE_SMILES>
CC(C)[C@H](C(=O)Nc1ccc(C(=O)Nc2ccccc2N)cc1)c1ccccc1

>  <ASSAY_SYSTEM>
Protein deacetylase HDAC6 (Homo sapiens) (UniProt Q9UBN7)

>  <REPORTED_ENDPOINT>
inhibition

>  <RESULT>
inactive

$$$$
>  <SAMPLE_SMILES>
CC(C)[C@H](C(=O)Nc1ccc(C(=O)Nc2ccc(F)cc2N)nc1)c1ccccc1

>  <ASSAY_SYSTEM>
Protein deacetylase HDAC6 (Homo sapiens) (UniProt Q9UBN7)

>  <REPORTED_ENDPOINT>
inhibition

>  <RESULT>
inactive

$$$$
>  <SAMPLE_SMILES>
CC[C@@H](C(=O)Nc1ccc(C(=O)Nc2ccc(F)cc2N)nc1)c1ccccc1

>  <ASSAY_SYSTEM>
Protein deacetylase HDAC6 (Homo sapiens) (UniProt Q9UBN7)

>  <REPORTED_ENDPOINT>
inhibition

>  <RESULT>
inactive

$$$$
>  <SAMPLE_SMILES>
C[C@@H](C(=O)Nc1ccc(C(=O)Nc2ccc(F)cc2N)nc1)c1ccccc1

>  <ASSAY_SYSTEM>
Protein deacetylase HDAC6 (Homo sapiens) (UniProt Q9UBN7)

>  <REPORTED_ENDPOINT>
inhibition

>  <RESULT>
inactive

$$$$
>  <SAMPLE_SMILES>
CC(C)[C@@H](C(=O)Nc1ccc(C(=O)Nc2ccc(F)cc2N)nc1)c1ccccc1

>  <ASSAY_SYSTEM>
Protein deacetylase HDAC6 (Homo sapiens) (UniProt Q9UBN7)

>  <REPORTED_ENDPOINT>
inhibition

>  <RESULT>
inactive

$$$$
>  <SAMPLE_SMILES>
C[C@H](C(=O)Nc1ccc(C(=O)Nc2ccc(F)cc2N)nc1)c1ccccc1

>  <ASSAY_SYSTEM>
Protein deacetylase HDAC6 (Homo sapiens) (UniProt Q9UBN7)

>  <REPORTED_ENDPOINT>
inhibition

>  <RESULT>
inactive

$$$$
